Observed AC50 for UniProt:P23975, reported per entry below.
Sequence (P23975 whole entry): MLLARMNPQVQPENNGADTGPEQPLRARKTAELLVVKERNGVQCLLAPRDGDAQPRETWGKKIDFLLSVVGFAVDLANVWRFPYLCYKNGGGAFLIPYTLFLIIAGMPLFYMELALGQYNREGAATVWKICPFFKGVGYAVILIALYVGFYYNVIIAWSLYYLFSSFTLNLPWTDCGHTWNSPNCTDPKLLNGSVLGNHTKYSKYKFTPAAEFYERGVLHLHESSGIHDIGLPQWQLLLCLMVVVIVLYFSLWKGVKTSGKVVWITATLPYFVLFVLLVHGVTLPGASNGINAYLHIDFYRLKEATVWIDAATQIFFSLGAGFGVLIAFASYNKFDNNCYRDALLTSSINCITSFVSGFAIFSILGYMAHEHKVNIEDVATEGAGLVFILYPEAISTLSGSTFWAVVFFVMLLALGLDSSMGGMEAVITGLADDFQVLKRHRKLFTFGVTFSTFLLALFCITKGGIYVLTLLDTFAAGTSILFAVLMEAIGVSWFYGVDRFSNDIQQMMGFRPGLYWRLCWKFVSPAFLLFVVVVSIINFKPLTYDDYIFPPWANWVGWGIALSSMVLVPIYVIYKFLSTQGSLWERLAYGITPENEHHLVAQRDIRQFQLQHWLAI

Example cases with answers are listed next.
compound: C#Cc1cccc(Nc2ncnc3cc(OCCOC)c(OCCOC)cc23)c1
testedTarget: UniProt:P23975
endpointValue: > 30 µM

compound: CN1CCC[C@H]1c1cccnc1
testedTarget: UniProt:P23975
endpointValue: > 30 µM

compound: O=S(=O)(O)CCS
testedTarget: UniProt:P23975
endpointValue: > 30 µM

compound: CCN(CC)CCOC(=O)C(Cc1cccc2ccccc12)CC1CCCO1 (stereo not given)
testedTarget: UniProt:P23975
endpointValue: > 30 µM

compound: N[C@@H](CSSC[C@H](N)C(=O)O)C(=O)O
testedTarget: UniProt:P23975
endpointValue: > 30 µM

## Input Provide AC50, tested on UniProt:P23975, for C[C@]12CC[C@@H]3c4ccc(O)cc4CC[C@H]3[C@@H]1CC[C@@H]2OC(=O)CCC1CCCC1 [ESTRADIOL CYPIONATE] .
## Output > 30 µM

## Input Please report AC50 with UniProt:P23975 for item O=C(Nc1cccc2c(=O)cc(-c3nnn[nH]3)oc12)c1ccc(OCCCCc2ccccc2)cc1 .
## Output 7.06 µM

## Input Give reported AC50 for C[C@]1(COc2ccc(N3CCC(Oc4ccc(OC(F)(F)F)cc4)CC3)cc2)Cn2cc([N+](=O)[O-])nc2O1 (UniProt:P23975)
## Output 12.9 µM

## Input Give the observed AC50 of C[C@H](N)C(=O)O for UniProt:P23975.
## Output > 30 µM

## Input Fill in: AC50 on UniProt:P23975, entry O=C(O)CCCc1ccc(N(CCCl)CCCl)cc1
## Output > 30 µM

----------
Target: Muscarinic acetylcholine receptor M2 (Homo sapiens, UniProt P08172); further: assay procedure not described here
Sequence (P08172 whole entry): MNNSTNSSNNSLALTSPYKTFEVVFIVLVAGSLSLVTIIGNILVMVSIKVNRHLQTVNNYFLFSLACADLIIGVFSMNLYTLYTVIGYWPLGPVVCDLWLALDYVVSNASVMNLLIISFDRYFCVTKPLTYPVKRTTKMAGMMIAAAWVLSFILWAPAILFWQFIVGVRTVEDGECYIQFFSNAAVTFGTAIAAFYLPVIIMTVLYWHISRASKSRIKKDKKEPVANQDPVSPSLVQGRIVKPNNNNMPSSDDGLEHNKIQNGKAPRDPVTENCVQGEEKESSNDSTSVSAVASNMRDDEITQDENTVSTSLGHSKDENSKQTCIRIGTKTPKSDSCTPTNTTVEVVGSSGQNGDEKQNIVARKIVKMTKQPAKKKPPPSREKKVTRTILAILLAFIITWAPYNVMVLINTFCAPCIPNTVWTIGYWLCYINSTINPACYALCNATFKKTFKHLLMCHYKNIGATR
Assay type: functional, cell-based
Below, each entry is listed with its recorded AC50.

Before answering, review these 2 worked examples.
compoundString: CN1CCN(c2c(F)cc3c(=O)c(C(=O)O)cn4c3c2SCC4)CC1
testedTarget: Muscarinic acetylcholine receptor M2 (Homo sapiens, UniProt P08172); further: assay procedure not described here
endpointValue: > 30 µM
--
compoundString: COC1=C(OC)C(=O)C(CCCCCCCCCCO)=C(C)C1=O
testedTarget: Muscarinic acetylcholine receptor M2 (Homo sapiens, UniProt P08172); further: assay procedure not described here
endpointValue: > 10 µM

## Input Item Cc1cnc(NC(=O)C2=C(O)c3ccccc3S(=O)(=O)N2C)s1 : provide AC50
## Output > 10 µM

## Input Supply measured AC50 of O=C(O)c1ccccc1OP(=O)(O)O in your reply.
## Output > 30 µM

## Input Output AC50 of COc1cc2c(Nc3ccc(Br)cc3F)ncnc2cc1OCC1CCN(C)CC1
## Output 21 µM

## Input Read the entry COc1ccc2c(c1)[C@]13CCCC[C@@H]1[C@H](C2)N(C)CC3 and write its reported AC50.
## Output > 10 µM

## Input Return AC50 (reported value) for this molecule: C=CC1=C(C(=O)O)N2C(=O)[C@@H](NC(=O)/C(=N\OCC(=O)O)c3csc(N)n3)[C@H]2SC1
## Output > 30 µM

## Input State its AC50: COc1ccc(Cc2nccc3cc(OC)c(OC)cc23)cc1OC
## Output > 30 µM

## Input Consider the molecule C#Cc1cccc(Nc2ncnc3cc(OCCOC)c(OCCOC)cc23)c1 . State its measured AC50.
## Output > 30 µM
